# Test system: Metabolism protein genes
# Experimental Protocol: DNA chip mRNA expression in yeast, metabolism protein genes (Table 7)
# Assay type: cell-based, Saccharomyces cerevisiae S288C
# Reported Conditions: yeast gene YOR142W
Reported level of expressed mRNA in the presence/in the absence of chemical substance by item:
Just the number, please, no unit after it.

Solved cases below.
[
  {
    "Compound": "O=[N+]([O-])c1cc[n+]([O-])c2ccccc12 [(5), 4-nitroquinolin-N-oxide]",
    "Readout Value": 1.4
  },
  {
    "Compound": "CN(C)C(=S)SSC(=S)N(C)C [(10), Tetramethylthiuram disulfide]",
    "Readout Value": 1.5
  },
  {
    "Compound": "S=C([S-])NCCNC(=S)[S-].[Zn+2] [(11), zinc N,N′-ethylenebis(dithiocarbamate)]",
    "Readout Value": 1.5
  }
]

Then this compound:
Q: Name the reported level of expressed mRNA in the presence/in the absence of chemical substance value associated with the compound CCCCC[C@H](O)CC(=O)CCc1ccc(O)c(OC)c1
Ans: 1.4

---

# System: Metabolism protein genes
# Experimental Protocol: DNA chip mRNA expression in yeast, metabolism protein genes (Table 7)
# Type: cell-based, Saccharomyces cerevisiae S288C
# Reported Conditions: yeast gene YDR400W
Attribute Measured: level of expressed mRNA in the presence/in the absence of chemical substance
Just the number, please, no unit after it.

Solved cases below.
[
  {
    "Molecule": "[Cl][Pb][Cl]",
    "Assay Target": "Metabolism protein genes",
    "Readout Value": 0.7
  },
  {
    "Molecule": "CCCCC[C@H](O)CC(=O)CCc1ccc(O)c(OC)c1",
    "Assay Target": "Metabolism protein genes",
    "Readout Value": 0.7
  },
  {
    "Molecule": "COc1cc(CNC(=O)CCCCC=CC(C)C)ccc1O [(12), 8-methyl-N-vanillyl-6-nonenamide]",
    "Assay Target": "Metabolism protein genes",
    "Readout Value": 0.4
  }
]

Then this molecule:
Q: Name the reported level of expressed mRNA in the presence/in the absence of chemical substance value associated with the molecule C[S+](C)[O-] [(15), dimethylsulfoxide]
Ans: 0.8

---

# Tested on: Metabolism protein genes
# Experimental Protocol: DNA chip mRNA expression in yeast, metabolism protein genes (Table 7)
# Format: cell-based, Saccharomyces cerevisiae S288C
# Reported Conditions: yeast gene YHR210C
Attribute Measured: level of expressed mRNA in the presence/in the absence of chemical substance
Just the number, please, no unit after it.

[
  {
    "Compound": "C[S+](C)[O-] [(15), dimethylsulfoxide]",
    "Assay Target": "Metabolism protein genes",
    "Readout Value": 0.5
  },
  {
    "Compound": "[Cl][Hg][Cl] [(3), HgCl2]",
    "Assay Target": "Metabolism protein genes",
    "Readout Value": 0.6
  },
  {
    "Compound": "[Cl][Pb][Cl] [(4), PbCl2]",
    "Assay Target": "Metabolism protein genes",
    "Readout Value": 5.2
  }
]

Then this compound:
Q: Name the reported level of expressed mRNA in the presence/in the absence of chemical substance value associated with the compound Oc1cc(Cl)c(Cl)cc1Cl [(6), 2,4,5-trichlorophenol]
Ans: 0.7

---

Reported level of expressed mRNA in the presence/in the absence of chemical substance by item:
# Test system: Metabolism protein genes
# Experimental Protocol: DNA chip mRNA expression in yeast, metabolism protein genes (Table 7)
# Format: cell-based, Saccharomyces cerevisiae S288C
# Reported Conditions: yeast gene YOR103C

Solved cases below.
[
  {
    "Molecule": "COc1cc(CNC(=O)CCCCC=CC(C)C)ccc1O [(12), 8-methyl-N-vanillyl-6-nonenamide]",
    "Assay Target": "Metabolism protein genes",
    "Readout Value": 1.2
  },
  {
    "Molecule": "[Cl][Hg][Cl]",
    "Assay Target": "Metabolism protein genes",
    "Readout Value": 1.3
  },
  {
    "Molecule": "C[S+](C)[O-] [(15), dimethylsulfoxide]",
    "Assay Target": "Metabolism protein genes",
    "Readout Value": 1.4
  }
]

Then this molecule:
Q: Name the reported level of expressed mRNA in the presence/in the absence of chemical substance value associated with the molecule C=CC=O
Ans: 1.2

Reference source: patent US8192962B2
